Test system: Rattus norvegicus
Test Summary: Rise in the glucose level 100 mg/kg oral dose in fasted nondiabetic rats
Assay type: functional
As shown below, each of these compounds has a reported Glucose rise value.

Compound: CC1(C)OC2C(C/N=C(\N)N=C(N)N)O[C@@H]3OC(C)(C)O[C@@H]3C2O1 (some centres undefined)
Glucose rise / mg/dL: 74

Compound: N=C(N)/N=C(\NCCc1ccccc1)NC1OC(CO)[C@@H](O)C(O)[C@H]1O (some centres undefined)
Glucose rise / mg/dL: 63

Compound: N=C(N)/N=C(\S)NC1OC(CO)[C@@H](O)C(O)[C@H]1O (some centres undefined)
Glucose rise / mg/dL: 63

Compound: COC1OC(C/N=C(/N)N=C(N)N)[C@@H](OCc2ccccc2)C(OCc2ccccc2)[C@H]1OCc1ccccc1 (some centres undefined)
Glucose rise / mg/dL: 41

Compound: N=C(N)/N=C(\N)NCC1OC(O)[C@H](O)C(O)C1O (some centres undefined)
Glucose rise / mg/dL: 77

Compound: CN(C)C(=N)NC(=N)N [METFORMIN]
Glucose rise / mg/dL: 45

Compound: N=C(N)/N=C(\N)NCCC1OC(CO)[C@@H](O)C1O (some centres undefined)
Glucose rise / mg/dL: 53

Compound: CO[C@H]1OC(CNC(=N)NC(=N)N)[C@@H](O)C(O)[C@H]1O (some centres undefined)
Glucose rise / mg/dL: 61

Compound: CC1(C)O[C@@H]2CO[C@@]3(C/N=C(/N)N=C(N)N)OC(C)(C)OC3[C@@H]2O1 (some centres undefined)
Glucose rise / mg/dL: 85
